# Test system: LOC_OS01G70970-cb002
# experimental-protocol: thermal shift delta Tm vs DMSO control; higher = stronger stabilization (binding);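 note: purified Escherichia coli-expressed rice kinase domain construct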
# particulars: 12.5 µM; protein concentration 2 µM
Kindly return 1 if reported thermal shift delta Tm is no lower than 0.7 °C; return -1 if it is lower.

Is thermal shift delta Tm for COc1cc2c(Nc3ccc(NC(=O)c4ccccc4)cc3)ncnc2cc1OCCCN1CCOCC1 at or above 0.7 °C? 1

// repeat for CN1CCC(CNc2ccc3ncc(-c4cccc(OC(F)(F)F)c4)n3n2)CC1 [SGI-1776 free base] and report 1

Can you check O=C(Nc1ccccc1C(=O)NC1CCCCNC1=O)c1cc2ccccc2s1 (stereo not drawn) next? -1

Now consider CN(C)CCCn1cc(C2=C(c3c[nH]c4ccccc34)C(=O)NC2=O)c2ccccc21 . 1

Same read-out for N#CC1(c2ccc(NC(=O)c3cccnc3NCc3ccncc3)cc2)CCCC1 ? -1

Same question, C1=N/C2=N/c3ccc(OCCN4CCCC4)c(c3)COC/C=C/COCc3cccc(c3)C(=C1)N2 [Pacritinib (SB1518)] this time 1

Record: O=c1cc(N2CCOCC2)oc2c(-c3ccc4c(c3)OCCO4)csc12 -1

Another molecule to check: C[C@@H](Oc1ccc2[nH]nc(/C=C/c3cnn(CCO)c3)c2c1)c1c(Cl)cncc1Cl 1

Would you mind doing CN1CCC(COc2cnc(-c3cccc(Cn4nc(-c5cccc(C#N)c5)ccc4=O)c3)nc2)CC1 as well? -1

Note, next up: COc1cc(F)c(F)c(Nc2ccc(I)cc2F)c1NS(=O)(=O)C1(C[C@H](O)CO)CC1 [Refametinib (RDEA119, Bay 86-9766)] -1

Repeat for the following molecule: CN1c2ccccc2C(=O)Nc2cnc(Nc3ccc(N4CCC(O)CC4)cc3)nc21 1

Try the molecule Cc1c(Cn2c(C)nc3c(C(=O)O)cc(N4CCOCC4)cc32)cccc1C(F)(F)F -1

Moving on to the next molecule: CN1CCN(CCOc2cc(OC3CCOCC3)c3c(Nc4c(Cl)ccc5c4OCO5)ncnc3c2)CC1 1

Now the same for c1ccc(-c2[nH]ncc2-c2ccnc3ccccc23)nc1 -1

And O=C(NCCO)c1cccc(-c2cc(Nc3ccc(OC(F)(F)F)cc3)ncn2)c1 ? -1

Param item: COc1ccc(-c2ccc3c(N4CCOC[C@@H]4C)nc(N4CCOC[C@@H]4C)nc3n2)cc1CO -1

Next: COc1cc2c(Oc3ccc4[nH]c(C)cc4c3F)ncnc2cc1OCCCN1CCCC1 -1

###

# System: LOC_OS05G43570-cb004
# experimental-protocol: thermal shift delta Tm vs DMSO control; higher = stronger stabilization (binding)
# particulars: 12.5 µM; protein concentration 2 µM
Counter-ions that a name gives are not always drawn.
Kind request: treat 0.6 °C as inclusive, so thermal shift delta Tm at 0.6 °C or higher is class 1, anything lower is class 0.

Form field: thermal shift delta Tm at least 0.6 °C? Entry: CC#CC(=O)N1CC[C@@H](n2c(=O)n(-c3ccc(Oc4ccccc4)cc3)c3c(N)ncnc32)C1 [ONO-4059 (GS-4059) hydrochloride] class 0

Now consider COc1ccc(CCNCc2ccc(OCc3ccc(Cl)nc3)c(OC)c2)cc1OC and answer again. class 0

Same question for Cn1c2ccccc2c2c3c(c4c5ccccc5n(CCC#N)c4c21)CNC3=O please. class 1

Also Cc1ccccc1CN1C2=NCCN2C(=O)C2=C1CCN(Cc1ccccc1)C2 , if possible. class 0

CC(C)c1cnn2c(NCc3ccccc3-n3cccn3)nc(OC3CCCNC3)nc12 (stereo not drawn) , same question. class 0

Can you check CN1CC[C@H](c2c(O)cc(O)c3c(=O)cc(-c4ccccc4Cl)oc23)[C@H](O)C1 [Flavopiridol HCl] next? class 1

Continue with CN1CCCN(C(=O)c2cccc(-c3ccc(/C=C4/C(=O)Nc5ccc(Cl)cc54)o3)c2)CC1 class 0

Moving on to O=C(Nc1cccc(Cl)c1)Nc1ncc(CCNc2ncnc3ccsc23)s1 [SNS-314 Mesylate] class 1

###

# Tested on: LOC_OS07G06570-cb004
# experimental-protocol: thermal shift delta Tm vs DMSO control; higher = stronger stabilization (binding)
# particulars: 12.5 µM; protein concentration 2 µM
measure: thermal shift delta Tm (°C)
All answers are understood in °C, so give the number only.

Which measured thermal shift delta Tm value corresponds to CCc1nc(C(N)=O)c(Nc2ccc(N3CCC(N4CCN(C)CC4)CC3)c(OC)c2)nc1NC1CCOCC1 ? 1.35

Proceed to C[C@@H](N)[C@H]1CC[C@H](C(=O)Nc2ccncc2)CC1 0.98

Same question, CC1=C(C(=O)Nc2ccc3[nH]ncc3c2)C(c2ccc(F)cc2)NC(=O)N1 (stereo not given) this time 1.97

Next molecule up: CCNC(=O)Nc1ccc(-c2nc3c(c(N4CCOC[C@@H]4C)n2)CCN(C2COC2)C3)cc1 1.06

Quick one: C[C@H](NC(=O)c1c(N)nn2cccnc12)c1cc2cccc(C#Cc3cnn(C)c3)c2c(=O)n1-c1ccccc1 1.69

###

# Tested on: LOC_OS04G57630-cb004
# experimental-protocol: thermal shift delta Tm vs DMSO control; higher = stronger stabilization (binding)
# particulars: 12.5 µM; protein concentration 2 µM
Field: thermal shift delta Tm. Provide a value for each of the compounds that follow.
Numbers only; they are read as °C.

Look up thermal shift delta Tm: C[C@]1(O)C[C@@H](c2nc(-c3ccc4ccc(-c5ccccc5)nc4c3)c3c(N)nccn32)C1 [Linsitinib (OSI-906)] 0.91

Same question for O=C1c2ccc(Nc3ccc(F)cc3F)cc2CCc2ccc(OC[C@H](O)CO)cc21 [Skepinone-L] please. -0.62

What would you report for Cc1cc(F)c(Nc2ncnc3cc(OCc4ccccc4)ccc23)cc1O ? -0.1

Try this compound next: Nc1[nH]nc2nnc(-c3c(-c4ccccc4)nn4ccccc34)cc12 0.25

Also CC(=O)O/N=C1/C(c2c(O)[nH]c3cc(Br)ccc23)=Nc2ccccc21 [BIO-acetoxime] ? 0.24

CC1=C(C(=O)Nc2ccc3[nH]ncc3c2)C(c2ccc(F)cc2)NC(=O)N1 (centres undefined) , same question. 0.17

Request: NCC(=O)Nc1ccc(-n2nc(C(F)(F)F)cc2-c2ccc3c(ccc4ccccc43)c2)cc1 -0.2

Same question, COc1cc2ncnc(Nc3ccc(F)c(Cl)c3)c2cc1OCCCN1CCOCC1 [Gefitinib (ZD1839)] this time -0.05

Further, for COc1ccc(-c2cc3c(C)nc(N)nc3n([C@H]3CC[C@H](OCCO)CC3)c2=O)cn1 ? 0.78

###

# System: LOC_OS01G14860-cb001
# experimental-protocol: thermal shift delta Tm vs DMSO control; higher = stronger stabilization (binding)
# particulars: 12.5 µM; protein concentration 2 µM
Please use fulfilled whenever thermal shift delta Tm is not below 0.4 °C, and not fulfilled whenever it is.

Is it the case that C[C@@H](Oc1ccc2[nH]nc(/C=C/c3cnn(CCO)c3)c2c1)c1c(Cl)cncc1Cl has thermal shift delta Tm reaching or exceeding 0.4 °C? fulfilled

Next record, please: C=CC(=O)Nc1cccc(Nc2nc(Nc3ccc(Oc4ccnc(C(=O)NC)c4)cc3)ncc2F)c1 fulfilled

Same again, this time with COc1ccc(CCNCc2ccc(OCc3ccc(Cl)nc3)c(OC)c2)cc1OC not fulfilled

Same read-out for CS(=O)(=O)N1CCN(Cc2cc3nc(-c4cccc5[nH]ncc45)nc(N4CCOCC4)c3s2)CC1 ? fulfilled

Repeat for the following compound: O=C(O)c1ccc2c(c1)nc(Nc1cccc(Cl)c1)c1ccncc12 fulfilled

Same question, CCc1cccc(CC)c1NC(=O)N1Cc2[nH]nc(NC(=O)c3ccc(N4CCN(C)CC4)cc3)c2C1 this time not fulfilled

Moving on to the next compound: FC(F)c1nc2ccccc2n1-c1nc(N2CCOCC2)nc(N2CCOCC2)n1 not fulfilled

What about this compound? CC1(COc2ccc3c(c2)ncn3-c2ccc3cccc(N4CCC(N)CC4)c3n2)COC1 fulfilled

###

# System: LOC_OS01G57100-cb003
# experimental-protocol: thermal shift delta Tm vs DMSO control; higher = stronger stabilization (binding)
# particulars: 12.5 µM; protein concentration 2 µM
Exercise: state measured thermal shift delta Tm for each of the compounds provided.
Please state the figure in °C; there is no need to write the unit.

Item: CCc1cnn2c(NCc3ccc[n+]([O-])c3)cc(N3CCCC[C@H]3CCO)nc12 Test system: LOC_OS01G57100-cb003 Read-out: thermal shift delta Tm Value: ? 1.62

// next record CS(=O)(=O)c1ccc(-c2cnc(N)c(C(=O)Nc3ccccc3)n2)cc1 0.59

One more compound: COc1ccc2c(Oc3ccc(NC(=O)c4c(C)n(CC(C)(C)O)n(-c5ccccc5)c4=O)nc3)ccnc2c1 1.79

Quick one: COc1cc2c(Oc3ccc(NC(=O)C4(C(=O)Nc5ccc(F)cc5)CC4)cc3F)ccnc2cc1OCCCN1CCOCC1 0.61

Item: O=C1NC(=O)/C(=C/c2cccc(C(F)(F)F)c2)S1 0.63

Try this compound next: COc1cc2c(N3CCN(C(=O)Nc4ccc(OC(C)C)cc4)CC3)ncnc2cc1OCCCN1CCCCC1 0.97

Follow-up entry: CCS(=O)(=O)N1CC(CC#N)(n2cc(-c3ncnc4[nH]ccc34)cn2)C1 2.25

Same for Nc1nc2cc(-c3ccc4ncc(C(=O)N5CCOCC5)n4c3)ccc2o1 1.55
